System: HS 578T breast
assay comment: NCI-60 one-dose screen, 48 h
conditions: 10 µM unless noted
The panel holds about 83,000 compounds, 20% with a hit somewhere; the sample as a whole holds those more often. The source made the active and inactive calls. How the source made its calls: active means growth percent below 10; inactive means the rest.
Pick from yes = active, no = inactive when you respond.

Query: recorded result category for O=C(O)c1ccc(-c2ccc(/C=N/Nc3nc(Nc4ccccc4)nc(N4CCCCC4)n3)o2)cc1 in this test
no

Query: recorded result category for CC1(C)C(N)=Nc2cc(OCCCN3Cc4ccccc4C3)c(OCC3CC3)cc21 in this test
no

Query: recorded result category for Cc1ccc(/C=C(\C#N)n2nnc3cc(F)c(F)cc32)cc1 in this test
no

Query: recorded result category for CC1(C)CC[C@]23CC[C@]4(C)[C@H](CC[C@@H]5[C@@]6(C)C/C(=C/c7ccncc7)C(=O)C(C)(C)[C@@H]6CC[C@]54C)[C@H]2[C@H]1OC3 in this test
no

Query: recorded result category for Cc1ncc(C(=O)Nc2ccc(CN3CCN(C)CC3)c(C(F)(F)F)c2)cc1C#Cc1cnc(N)c2ncccc12 in this test
no

Query: recorded result category for Cc1ccc(-c2nc3nc(-c4ccccc4)nc(N4CCCN(S(C)(=O)=O)CC4)c3o2)cc1 in this test
no

Query: recorded result category for CSc1nc(C)c([N+](=O)[O-])c(N)n1 in this test
no

Query: recorded result category for Cc1ccccc1Nc1cc(O)c2c(=O)cc(-c3ccccc3)oc2c1 in this test
no

Query: recorded result category for COc1cccc(NCc2nnc(Nc3ccc(Cl)cc3)c3ccccc23)c1 in this test
yes
